# system.tested: human CYP4F2 (Homo sapiens (Human), UniProt P78329)
# Sequence (P78329 5-520): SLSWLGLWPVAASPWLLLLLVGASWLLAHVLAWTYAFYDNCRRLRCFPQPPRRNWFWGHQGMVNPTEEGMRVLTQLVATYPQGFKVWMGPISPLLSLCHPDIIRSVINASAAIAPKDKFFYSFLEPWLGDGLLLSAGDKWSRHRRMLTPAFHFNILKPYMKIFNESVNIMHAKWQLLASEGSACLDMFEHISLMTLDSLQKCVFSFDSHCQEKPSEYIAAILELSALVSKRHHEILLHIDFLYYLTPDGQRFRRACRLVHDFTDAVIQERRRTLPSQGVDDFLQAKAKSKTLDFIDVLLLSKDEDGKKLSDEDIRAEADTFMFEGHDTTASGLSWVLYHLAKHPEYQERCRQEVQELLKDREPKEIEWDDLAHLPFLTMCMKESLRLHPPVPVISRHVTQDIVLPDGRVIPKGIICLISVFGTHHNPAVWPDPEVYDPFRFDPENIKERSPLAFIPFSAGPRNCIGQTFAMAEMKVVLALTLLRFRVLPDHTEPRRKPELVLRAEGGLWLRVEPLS
# procedure.details: Inhibition test against 20-HETE producing enzyme CYP4F2 (luciferine derivative, luminescence)
# Type: biochemical
# condition.notes: E. coli membrane fraction expressing human CYP4F2, 2.5 μM luciferine derivative, room temperature 60 minutes
# Excerpt: (1) Inhibition Test for Each Compound of the Present Invention Against 20-HETE Producing Enzymes (CYP4F2 and CYP4A11) […] A: Luminescence value with addition of compound B: Luminescence value without addition of compound and enzyme
experimental.endpoint: IC50 (nM)

compound | unit.abbrev | quantitative.result
O=C(O)c1cc(COc2ccc(-c3ccn[nH]3)nc2)ccn1 [Example 1-40] | nM | 15000
CC(C)(O)CS(=O)(=O)c1cccc(COc2ccc(-c3ccn[nH]3)nc2)c1 [Example 36-1] | nM | 93
CC(C)(Oc1cccc(CCCCOc2ccc(-c3ccn[nH]3)nc2)c1)C(=O)O [Example 1-36] | nM | 1300

[I] O=C(O)c1ccc(-c2cccc(COc3ccc(-c4ccn[nH]4)nc3)c2)nc1 [Example 18-2]
[II] CC(C)(CCNC(=O)N1CCC[C@@H](COc2ccc(-c3ccn[nH]3)nc2)C1)C(=O)O [Example 55-1]
[III] O=C(O)C1CC(CCOc2ccc(-c3ccn[nH]3)nc2)C1 (centres unmarked) [Example 1-26]
[IV] O=C(O)C1(F)CCN(S(=O)(=O)c2cccc(COc3ccc(-c4ccn[nH]4)nc3)c2)C1 (centres unmarked) [Example 22-11]
# ascending order, key=IC50 Labels, ranked as asked.
I, IV, II, III
